- System: Linezolid and Vancomycin Resistant Enterococcus faecium (strain 11)
- PROTOCOL_DESCRIPTION: In vitro antibacterial activity, broth microdilution MIC90
- Format: cell-based
- CONDITION_INFO: Enterococcus faecium; strain 11, E. faecium VanA LR; read-out: MIC90
hey, just use Criterion met if measured MIC90 is less than 4 µg/mL, otherwise Criterion not met

Query string: is_below(MIC90, 4 µg/mL) for "CC(=O)NC[C@H]1CN(c2ccc(-c3ccc(N4C=NN(C(=O)COC(=O)CCC(=O)O)CC4)nc3)c(F)c2)C(=O)O1" ?
Result string: Criterion met

Query string: is_below(MIC90, 4 µg/mL) for "O=C1O[C@@H](Cn2ccnn2)CN1c1ccc(-c2ccc(N3C=NOCC3)nc2)c(F)c1" ?
Result string: Criterion met

Query string: is_below(MIC90, 4 µg/mL) for "CC(=O)NC[C@H]1CN(c2ccc(-c3ccc(C4=NOCCN4)nc3)c(F)c2)C(=O)O1" ?
Result string: Criterion met

Query string: is_below(MIC90, 4 µg/mL) for "CC(=O)NC[C@H]1CN(c2ccc(-c3ccc(N4CCN(C=O)C=N4)nc3)c(F)c2)C(=O)O1" ?
Result string: Criterion met

Query string: is_below(MIC90, 4 µg/mL) for "COC(=O)NC[C@H]1CN(c2ccc(-c3ccc(C4=NOCCN4C)nc3)c(F)c2)C(=O)O1" ?
Result string: Criterion not met

Query string: is_below(MIC90, 4 µg/mL) for CC(=O)NC[C@H]1CN(c2ccc(N3CCOCC3)c(F)c2)C(=O)O1 [LZD, Linezolid, reference compound] ?
Result string: Criterion not met

Query string: is_below(MIC90, 4 µg/mL) for "CC(=O)NC[C@H]1CN(c2ccc(-c3ccc(N4C=NN(C=O)CC4)nc3)c(F)c2)C(=O)O1" ?
Result string: Criterion met

Query string: is_below(MIC90, 4 µg/mL) for "COC(=O)NC[C@H]1CN(c2ccc(-c3ccc(N4CCON=C4C)nc3)c(F)c2)C(=O)O1" ?
Result string: Criterion not met

Query string: is_below(MIC90, 4 µg/mL) for "O=C1O[C@@H](CO)CN1c1ccc(-c2ccc(N3C=NOCC3)nc2)c(F)c1" ?
Result string: Criterion not met

Query string: is_below(MIC90, 4 µg/mL) for "CN1CCON=C1c1ccc(-c2ccc(N3C[C@H](CO)OC3=O)cc2F)cn1" ?
Result string: Criterion not met

Query string: is_below(MIC90, 4 µg/mL) for "CC(=O)NC[C@H]1CN(c2ccc(-c3ccc(N4C=NOCC4)nc3)c(F)c2)C(=O)O1" ?
Result string: Criterion met

Query string: is_below(MIC90, 4 µg/mL) for "CC(=O)NC[C@H]1CN(c2ccc(-c3ccc(N4C=NN(CCO)CC4)nc3)c(F)c2)C(=O)O1" ?
Result string: Criterion met
